Target: UniProtKB Q03311
Sequence (Q03311 whole entry): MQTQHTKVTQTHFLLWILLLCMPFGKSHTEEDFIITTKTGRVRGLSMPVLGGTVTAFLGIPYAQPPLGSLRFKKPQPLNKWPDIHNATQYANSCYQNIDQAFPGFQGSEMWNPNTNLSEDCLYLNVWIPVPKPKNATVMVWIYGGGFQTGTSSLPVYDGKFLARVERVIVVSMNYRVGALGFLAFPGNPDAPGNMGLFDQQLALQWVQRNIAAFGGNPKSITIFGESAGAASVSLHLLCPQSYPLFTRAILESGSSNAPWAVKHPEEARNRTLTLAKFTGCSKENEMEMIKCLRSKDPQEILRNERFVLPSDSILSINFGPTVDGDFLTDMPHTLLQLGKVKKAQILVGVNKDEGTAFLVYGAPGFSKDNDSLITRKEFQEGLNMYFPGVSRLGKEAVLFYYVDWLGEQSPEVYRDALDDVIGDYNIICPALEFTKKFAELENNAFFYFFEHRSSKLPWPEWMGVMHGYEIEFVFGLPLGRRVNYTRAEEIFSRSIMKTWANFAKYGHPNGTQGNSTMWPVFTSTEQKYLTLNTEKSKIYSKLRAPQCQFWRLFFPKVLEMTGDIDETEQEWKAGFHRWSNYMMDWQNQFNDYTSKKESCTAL
Consider the cut-off 1000 nM. If the recorded IC50 is strictly smaller, the label is fulfilled; if not, the label is not fulfilled.

smiles_code=N#Cc1ccc2[nH]cc(CCCCN3CCN(c4ccccc4C(=O)CCC4CCN(Cc5ccccc5)CC4)CC3)c2c1 system="UniProtKB Q03311" qualitative_label=fulfilled

API: query returns whether the compound falls strictly under 1000 nM in IC50. Query: N#Cc1ccc2[nH]cc(CCN3CCN(c4ccc(C(=O)CCC5CCN(Cc6ccccc6)CC5)cc4)CC3)c2c1
not fulfilled

Consider N#Cc1ccc2[nH]cc(CN3CCN(c4ccc(C(=O)CCC5CCN(Cc6ccsc6)CC5)cc4)CC3)c2c1 . Does its IC50 lie strictly below 1000 nM?
fulfilled

Record N#Cc1ccc2[nH]cc(CCCCN3CCN(c4ccc(C(=O)CCC5CCN(CC6CCCC6)CC5)cc4)CC3)c2c1 : is its IC50 strictly below 1000 nM?
not fulfilled

Problem: For the compound N#Cc1ccc2[nH]cc(CCCN3CCN(c4ccc(C(=O)CCC5CCN(Cc6ccccc6)CC5)cc4)CC3)c2c1 , is IC50 under 1000 nM?
not fulfilled

Hello, is IC50 of the following compound strictly smaller than 1000 nM? COC(=O)c1ccc2[nH]cc(CCCCN3CCN(c4ccc(C(=O)CCC5CCN(Cc6ccccc6)CC5)cc4)CC3)c2c1
fulfilled

Answer whether the compound N#Cc1ccc2[nH]cc(CCCCN3CCN(c4ccc(C(=O)CCC5CCN(Cc6cccc(Cl)c6)CC5)cc4)CC3)c2c1 has IC50 strictly less than 1000 nM
not fulfilled

Entry source: ChEMBL document CHEMBL5046241
